PROTOCOL_SUMMARY: cell viability in Huh7 cells, primary screen, cytotoxicity control for HCV replication inhibitor project, CellTiter-Glo luminescence, basal, 48 h (AID 1143);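 also: Huh7 hepatoma cells carrying a hepatitis C replication reporter with no stimulus; test concentration not given here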
STATED_CONDITIONS: Huh7 HCV replicon, higher = more signal, called active from +8 up or from −8 down
Is z-score at least -4? Then criterion met. If not, criterion not met.

Completed entries (count: 10):
1. COc1ccc([Si](C)(C)[C@@H]2[C@@H](CC(=O)N(CCO)Cc3ccccc3)O[C@]3(C(=O)N(C)c4ccccc43)[C@H]2C)cc1: criterion not met
2. COc1ccc([Si](C)(C)[C@H]2[C@H](CC(=O)N(CCO)Cc3ccccc3)O[C@@]3(C(=O)N(Cc4cccc(N5CCC5=O)c4)c4ccccc43)[C@@H]2C)cc1: criterion not met
3. COc1cccc(C(=O)O[C@H]2CC[C@]3(C)C4=C(CCC3C2(C)C)[C@]2(C)CC[C@H]([C@H](C)CCCC(C)C)[C@@]2(C)CC4)c1 (some centres undefined): criterion met
4. O=C1OCC=C[C@H]2OC34C=CCN(c5ccc6ccccc6c5)C(=O)[C@H]3N(CCCO)C(=O)[C@@H]4[C@@H]12 (some centres undefined): criterion met
5. O=C(OCCF)C1=CCC(c2cccc(Cl)c2)O1 (centres undefined): criterion met
6. C[C@]1(C(=O)NCc2ccccc2)c2ccccc2C(=O)N(Cc2ccc(OC(F)(F)F)cc2)[C@H]1c1ccc(CO)cc1: criterion met
7. Cc1ccc(S[C@]2(C(=O)NC3CC3)CC(=O)N(Cc3ccccc3)[C@@H]2c2ccc(CO)cc2)cc1: criterion met
8. COC(=O)C(CC#Cc1ccc2c(c1)[C@]1(C(=O)N2)[C@H](C(=O)NC[C@H](O)c2ccccc2)[C@H]2C(=O)O[C@H](c3ccccc3)[C@H](c3ccccc3)N2[C@@H]1c1ccc(OCCO)cc1)C(=O)OC: criterion met
9. CC1=C2[C@@H](CCc3ccccc3)OB(O)C[C@@H]2n2c(=O)n(-c3ccccc3)c(=O)n2C1: criterion met
10. O=C(CS)NCCCCCCNC(=O)[C@@H]1C[C@@H]2C(=O)N3CCC[C@H]3C(=O)N2[C@@H]1c1ccc(O)cc1: criterion met

Test whether the compound C=C(C(=O)CC[C@H](OC(C)=O)c1ccc(OCCO)cc1)C(C)C records z-score of -4 or higher.
criterion not met

Threshold query (z-score >= -4) on COc1ccc(NN2C(C(O)c3ccc(OC)c(OCc4ccccc4)c3)C=CC3C(=O)N(C4CCCCC4)C(=O)C32)cc1 (centres undefined)
criterion met

Kindly determine if z-score recorded for COCCOC(=O)N1C(=O)[C@@]2(c3cc(C#CC4(O)CCCCCC4)ccc31)[C@H](C(=O)N1CCCCCCC1)[C@H]1C(=O)O[C@H](c3ccccc3)[C@H](c3ccccc3)N1[C@@H]2c1ccccc1OCCO is above or exactly -4.
criterion not met

---

composite z-score: recorded values
MEASURED_ON: Torsin-1A (Homo sapiens)
PROTOCOL_SUMMARY: torsin A binders from cell lysate, primary screen, small-molecule microarray, wild-type, 635/667 nm (AID 1149)
STATED_CONDITIONS: COS7 hTOR1A-WT lysate, 635 nm fluorescence, higher = more signal
Please respond with just the number, no unit label.

These solved cases illustrate the format of a correct answer.
1) CC(=CC1CCCCC1)[C@@H](NC(=O)c1ccc(C(F)(F)F)cc1)c1ccc(-c2ccccc2)cc1: -0.514
2) C=CC[C@]1(C(=O)N2CCOCC2)N=C(c2ccc(OCCCO)cc2)O[C@H]1c1ccccc1: -0.267
3) O=C(NCc1ccccc1)[C@]1(CCS(=O)(=O)c2ccccc2)N=C(c2ccc(OCCCO)cc2)O[C@@H]1c1ccccc1: 0.129

Retrieve composite z-score on Torsin-1A (Homo sapiens); query COCC(=C=CC[C@H](O)c1ccc(OCCO)cc1)C[C@H](O)c1cc(Cl)cc(Cl)c1O
1.06

Tell me composite z-score of C=CCC(OC(C)=O)[C@@H]1[C@@H](N(Cc2ccc(-c3cccc(C(F)(F)F)c3)o2)C(=O)c2ccc(C)cc2)c2cc(OCCCO)ccc2N1C(=O)c1ccc(-c2ccccc2)cc1 (stereo partly drawn) when tested on Torsin-1A (Homo sapiens).
-0.245

Provide the reported composite z-score (system: Torsin-1A (Homo sapiens)) for CC(C)c1ccc(NN2C(C(O)c3ccc(N(C)C)cc3)C=CC3C(=O)N(c4ccccc4)C(=O)C32)cc1 (stereo not drawn)
0.074

Tell me composite z-score of O=C1OCCC=C[C@H]2OC34C=CCN(c5ccc6ccccc6c5)C(=O)[C@H]3N(CCCCCO)C(=O)[C@@H]4C12 (stereo partly drawn) when tested on Torsin-1A (Homo sapiens).
0.592

Provide the reported composite z-score (system: Torsin-1A (Homo sapiens)) for COC(=O)C(CC#Cc1ccc2c(c1)[C@]1(C(=O)N2)[C@H](c2ccc(OCCO)cc2)N2[C@H](c3ccccc3)[C@H](c3ccccc3)OC(=O)[C@H]2[C@@H]1C(=O)NC[C@H](O)c1ccccc1)C(=O)OC
0.413

Check Torsin-1A (Homo sapiens) data and give composite z-score for O=C1O[C@@H](c2ccccc2)[C@@H](c2ccccc2)N2[C@@H](c3ccc(O)cc3)[C@]3(C(=O)Nc4ccc(C#CC5=CCCCC5)cc43)[C@@H](C(=O)O)[C@H]12 .
0.198

Find composite z-score for CN(C)CCCNC(=O)[C@@]1(Cc2ccccc2I)c2ccccc2C(=O)N(Cc2ccccc2C(F)(F)F)[C@H]1c1ccc(CO)cc1 on Torsin-1A (Homo sapiens) and write it down.
-1.08

Give the observed composite z-score of C=CCNC(=O)[C@@H]1[C@H]2C(=O)O[C@H](c3ccccc3)[C@H](c3ccccc3)N2[C@H](c2ccccc2OCCO)[C@@]12C(=O)Nc1ccc(C#CC3=CCCCC3)cc12 for Torsin-1A (Homo sapiens).
0.192

Enter measured composite z-score, system Torsin-1A (Homo sapiens), for the compound shown: COCCOC(=O)N1C(=O)[C@@]2(c3cc(C#CC4=CCCCC4)ccc31)[C@H](C(=O)N1CCc3cc(OC)c(OC)cc3C1)[C@H]1C(=O)O[C@H](c3ccccc3)[C@H](c3ccccc3)N1[C@@H]2c1ccccc1OCCO
0.198

Return reported composite z-score for target or system Torsin-1A (Homo sapiens), item O=C1N(CCS(=O)(=O)c2ccccc2)Cc2ccccc2[C@H]2OC(c3ccc(OCCCO)cc3)=N[C@@]12CCS(=O)(=O)c1ccccc1 .
0.307

---

PROTOCOL_SUMMARY: basal HepG2 mitochondrial membrane potential changes, profiling panel, cell-based, JC-1 fluorescence, 24 h, 100 nL compound (AID 1167); also: test concentration not given here
STATED_CONDITIONS: higher = more signal
The reader will find reported z-score values listed item by item below.
Respond numerically, and do not add a unit to the figure.

1. CCCC[C@@H]1C[C@H]1[C@@H](NC(=O)c1ccc(-c2ccccc2)cc1)c1ccc(-c2ccccc2)cc1: -0.922
2. COCCOC(=O)N1C(=O)[C@@]2(c3cc(C#CCNC(N)=O)ccc31)[C@H](c1ccccc1OCCO)N1[C@H](c3ccccc3)[C@H](c3ccccc3)OC(=O)[C@H]1[C@@H]2C(N)=O: -1.83
3. COc1ccc(C(=O)Nc2cccc(CN3C(=O)[C@]4(O[C@H](CC(=O)N5CCC[C@H]5CO)[C@@H]([Si](C)(C)c5ccc(OC)cc5)[C@@H]4C)c4ccccc43)c2)cc1: -1.73
4. CC=CC(O)C1C=CC2C(=O)N(c3ccccc3)C(=O)C2N1Nc1ccc(C(C)C)cc1 (centres undefined): -1.09
5. COCCCNC(=O)[C@@]1(C)c2ccccc2C(=O)N(Cc2cc(C(F)(F)F)cc(C(F)(F)F)c2)[C@H]1c1ccc(CO)cc1: 1.59
6. COc1ccc([Si](C)(C)[C@@H]2[C@@H](CC(=O)N3CCC[C@H]3CO)O[C@]3(C(=O)N(C)c4c(Br)cc(C)cc43)[C@H]2C)cc1: 1.02

Could you please provide reported z-score for C=CCNC(=O)[C@@H]1[C@H]2C(=O)O[C@H](c3ccccc3)[C@H](c3ccccc3)N2[C@H](c2ccccc2OCCO)[C@@]12C(=O)Nc1ccc(C#CC3=CCCCC3)cc12 ? Thanks!
-1.79

Please give the documented z-score of [N-]=[N+]=Nc1ccccc1[C@@H]1OC(c2ccc(OCCCO)cc2)=N[C@]1(CCS(=O)(=O)c1ccccc1)C(=O)N1CCOCC1
0.431

Give the reported value of z-score for this record: COc1ccc(C#Cc2ccc3c(c2)[C@]2(C(=O)N3)[C@H](C(=O)NC[C@H](O)c3ccccc3)[C@H]3C(=O)O[C@H](c4ccccc4)[C@H](c4ccccc4)N3[C@@H]2c2ccccc2OCCO)cc1
-2.27

Determine from records and report z-score for O=C1C=CC(=O)[C@@H]2CC(COc3ccccc3)=C3[C@@H](CCc4ccccc4)OB(O)C[C@@H]3[C@H]12
-3.77

Return z-score (reported value) for this molecule: O=C(CCN1CCOCC1)c1cccc(O)c1
0.109
